# System under test: ETS1 (UniProt P14921)
# Sequence: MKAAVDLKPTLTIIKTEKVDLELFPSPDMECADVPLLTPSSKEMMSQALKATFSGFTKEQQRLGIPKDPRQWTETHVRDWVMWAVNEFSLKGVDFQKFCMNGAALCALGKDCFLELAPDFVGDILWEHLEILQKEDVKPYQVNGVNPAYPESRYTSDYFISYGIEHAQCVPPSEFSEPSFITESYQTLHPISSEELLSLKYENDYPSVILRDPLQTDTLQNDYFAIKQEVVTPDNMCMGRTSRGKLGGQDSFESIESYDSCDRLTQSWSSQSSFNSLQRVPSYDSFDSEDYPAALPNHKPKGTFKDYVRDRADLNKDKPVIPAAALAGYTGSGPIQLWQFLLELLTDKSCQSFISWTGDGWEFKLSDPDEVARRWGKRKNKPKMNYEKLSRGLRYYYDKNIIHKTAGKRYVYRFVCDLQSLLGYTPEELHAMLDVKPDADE
# Protocol summary: ETS1 binding intensity (PBM fluorescence), ETS1 alone (arbitrary fluorescence units); higher = stronger binding
# Condition parameters: ETS1 concentration 1 nM; RUNX1 concentration 0 nM
In all, about 4,100 sequences were measured (“arbitrary fluorescence units”: median about 780, highest 2% from about 22,000 on). The sample as a whole holds a higher share of the highest values than the screen did.
Result type: ETS1 binding intensity
Field format: numeric only.

GET /value?item= `CCAGGAGGGATGGGGAAGTTCACCAGACACTCCATG` &field=ETS1 binding intensity returns 444

GET /value?item= `AGCACCCCATTCTACACCTCCAGCTCATCCTGCGTC` &field=ETS1 binding intensity returns 389

GET /value?item= `CCTGACTTCCTCCTCCCCCTCCCGCCCCAATTCCGC` &field=ETS1 binding intensity returns 4620

GET /value?item= `CTGACTTGTTGTAGTCTCTGCCACTTCCTGAGGTGT` &field=ETS1 binding intensity returns 668

GET /value?item= `CAGTCTGGCCATGAGGTGCCACTTCCTCTCTGGTTT` &field=ETS1 binding intensity returns 1550

GET /value?item= `GACAAGATTGCAGGTGGCAACCCCATCCGGTTTGTT` &field=ETS1 binding intensity returns 1400

GET /value?item= `AGACCCTGTTGTCACATGGCAGGAAGTCTGCAGGTT` &field=ETS1 binding intensity returns 1060

GET /value?item= `GGCAGGAAAGAGCTGATGCATTTCAACAGCAGCCTG` &field=ETS1 binding intensity returns 477

GET /value?item= `AGCCGCCACTTCCTGTCTCTGAGGGTGCATGCTCTT` &field=ETS1 binding intensity returns 36000

GET /value?item= `GTCTTACTTCCTGTCCCCGCCCACCTCGACTGTCTT` &field=ETS1 binding intensity returns 22700

GET /value?item= `ATTACATCCGGGCTCCGCGACACGCCCGAACCCCAA` &field=ETS1 binding intensity returns 25300

Source listed as the supplement of paper PMC10681739.
